Test system: SK-MEL-2
TEST: Drug combination assay, SK-MEL-2
Assay type: cell-based
CONDITION_LABEL: Combination Index at ED50, CalcuSyn 2.1; listed drug + compound 19
MEASURED_ATTRIBUTE: CI in SK-MEL-2 with compound 19
The reply should be a number, written without any unit.

Param item = COc1ccc2c(c1)/C(=C/c1cnc[nH]1)C(=O)N2 [SU 9516] ; retrieve measured CI in SK-MEL-2 with compound 19.
0.83

Follow-up item: CC[C@@]1(O)C(=O)OCc2c1cc1n(c2=O)Cc2cc3ccccc3nc2-1 [Camptothecin]
0.74

Follow-up item: C=CCN(/C=C1/C(=O)O[C@H](COC)[C@@]2(C)C1=C(O)C(=O)C1=C2[C@H](OC(C)=O)C[C@]2(C)C(=O)CC[C@@H]12)CC=C [PX-866]
0.57

Follow-up item: CNC(=O)c1cc(Oc2ccc(NC(=O)Nc3ccc(Cl)c(C(F)(F)F)c3)cc2)ccn1 [Sorafenib]
0.43

====

TEST: In vivo plasma pharmacokinetic study in C.B-17 scid mice
CONDITION_LABEL: male, C.B-17 scid, mouse, plasma, iv, 100 mg/kg; i.v. infusion over 30 min; population
MEASURED_ATTRIBUTE: Cmax (µM)
The reply should contain only the number, in µM.

Param item = `CNC(=O)O[C@@H](C)/C=C\C(=O)N[C@H]1CC[C@@H](C/C=C(C)/C=C/[C@@H]2C[C@]3(CO3)CC(C)(C)O2)CC1` ; retrieve measured Cmax.
24.1

====

TEST: In vivo plasma pharmacokinetic study in C.B-17 scid mice
CONDITION_LABEL: male, C.B-17 scid, mouse, plasma, iv, 100 mg/kg; i.v. infusion over 30 min; population
MEASURED_ATTRIBUTE: AUC(0-inf)
A complete answer gives the number and then names the unit.

Param item = `CNC(=O)O[C@@H](C)/C=C\C(=O)N[C@H]1CC[C@@H](C/C=C(C)/C=C/[C@@H]2C[C@]3(CO3)CC(C)(C)O2)CC1` ; retrieve measured AUC(0-inf).
12.5 µM·h

====

TEST: Mouse plasma stability (HPLC)
Type: in vitro ADME
CONDITION_LABEL: mouse plasma at 37° C.

| CHEMICAL_STRUCTURE | Plasma Stability |
| --- | --- |
| CC(/C=C/[C@@H]1C[C@]2(CO2)CC(C)(C)O1)=C\C[C@H]1OC[C@@H](NC(=O)/C=C\[C@H](C)OC(=O)C(C)C)CO1 | No |
| CC(=O)O[C@@H](C)/C=C\C(=O)N[C@H]1CC[C@@H](C/C=C(C)/C=C/[C@@H]2C[C@]3(CO3)CC(C)(C)O2)CC1 | No |
| CC(/C=C/[C@@H]1C[C@]2(CO2)CC(C)(C)O1)=C\C[C@H]1CC[C@@H](NC(=O)/C=C\[C@H](C)OC(=O)C(C)C)CC1 | No |

====

System: JeKo1
TEST: In vitro cytotoxicity analysis, JeKo1
Assay type: cell-based
CONDITION_LABEL: Homo sapiens, JeKo-1; Table II
MEASURED_ATTRIBUTE: pIC50
Remember the convention: pIC50 equals -log10 of concentration in molar.

Param item = `CC(/C=C/[C@@H]1C[C@]2(CO2)CC(C)(C)O1)=C\C[C@H]1CC[C@@H](NC(=O)/C=C\[C@H](C)OC(N)=O)CC1` ; retrieve measured pIC50.
7.00

Follow-up item: CC(/C=C/C1C[C@]2(CO2)CC(C)(C)O1)=C\C[C@H]1OC[C@@H](NC(=O)/C=C\[C@H](C)OC(=O)N(C)C)CO1 (stereo partly shown)
6.52

Follow-up item: `CC(=O)O[C@@H](C)/C=C\C(=O)N[C@H]1CC[C@@H](C/C=C(C)/C=C/[C@@H]2C[C@]3(CO3)CC(C)(C)O2)CC1`
7.00

Follow-up item: `CC(/C=C/[C@@H]1C[C@]2(CO2)CC(C)(C)O1)=C\C[C@H]1CC[C@@H](NC(=O)/C=C\[C@H](C)OC(=O)C(C)C)CC1`
7.33

Follow-up item: `CC(/C=C/[C@@H]1C[C@]2(CO2)CC(C)(C)O1)=C\C[C@H]1OC[C@@H](NC(=O)/C=C\[C@H](C)OC(=O)C(C)C)CO1`
6.66

Follow-up item: `CC(/C=C/[C@@H]1C[C@]2(CO2)CC(C)(C)O1)=C\C[C@H]1CC[C@@H](NC(=O)/C=C\[C@H](C)OC(=O)N(C)CCN(C)C)CC1`
6.77

Follow-up item: CNC(=O)O[C@@H](C)/C=C\C(=O)N[C@H]1CC[C@@H](C/C=C(C)/C=C/[C@@H]2C[C@]3(CO3)CC(C)(C)O2)CC1 [drawing 208]
7.66

Data credit: patent US9682993B2
